The measured values listed here are drawn from paper PMC11033359.

Target: HLMs (human liver microsomes)
Assay: Inhibition of tofacitinib metabolism (M8 formation) in HLMs
Conditions: substrate tofacitinib
Method: All except NADPH were mixed on ice. Statistical analysis was conducted using Student's t-test.
Let's look at some molecules and their measured pKi.
# log scale: pKi equals minus log10 of the concentration in mol/L

{"Molecule": "COc1c2ccoc2cc2oc(=O)ccc12 [Bergapten, 5-methoxy-psoralen]", "Value": 6.72}

Need pKi, item O=c1ccc2ccc3occc3c2o1 [Isopsoralen] 5.75

----------
assay: in vivo; parameters: species or system Sprague Dawley rats; settings: male, Sprague-Dawley, rat, po, 10 mg/kg, MRT(0-∞)
Endpoint label: MRT inf (h)
Kindly answer with a numeric value in h, unit omitted.

Need MRT inf, item `C[C@@H]1CCN(C(=O)CC#N)C[C@@H]1N(C)c1ncnc2[nH]ccc12` 2.19
